Property: TGFb3 IC50 (SMAD3 phosphorylation in CMVICs, AlphaLISA); scope: individual binders
System: T1, TGFβ3 (R&D Systems)
T1 sequence (P10600 301-412, species assumed, looked up): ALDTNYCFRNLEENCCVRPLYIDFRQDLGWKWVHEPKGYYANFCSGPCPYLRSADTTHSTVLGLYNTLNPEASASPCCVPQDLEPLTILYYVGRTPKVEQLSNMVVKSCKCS
Assay Notes: cell-based or functional assay

Caninized anti-TGFβ1,2,3 antibody VH4.11 - VL3 (antibody, V domains shown) VH: QVQLVQSGAEVKKPGSSVKVSCKASGYTFSSNVISWVRQAPGKGLQWVGGVIPIVDIANYAQRFKGRVTLTADTSTNTVYMELSNLRTEDTAVYYCARTLGLVLDAMDYWGQGTLVTVSS VL: EIVMTQSPASLSLSQEEKVTITCRASQSLGSSYLAWYQQKPGQAPKLLIYGASSRAPGVPSRFSGSGSGTDFSFTISSLEPEDVAVYYCQQYADSPITFGQGTKLEIKR    0.575 µg/mL
Caninized anti-TGFβ1,2,3 antibody VH4.11 - VL2 (antibody, V domains shown) VH: QVQLVQSGAEVKKPGSSVKVSCKASGYTFSSNVISWVRQAPGKGLQWVGGVIPIVDIANYAQRFKGRVTLTADTSTNTVYMELSNLRTEDTAVYYCARTLGLVLDAMDYWGQGTLVTVSS VL: ETVLTQSPGTLSLSPGERATLSCRASQSLGSSYLAWYQQKPGQAPRLLIYGASSRAPGVPARFSGSGSGTDFTLTISSLEPEDFAVYYCQQYADSPITFGQGTKLEIKR    0.375 µg/mL

Q: // query TGFb3 IC50 (SMAD3 phosphorylation in CMVICs, AlphaLISA) value for entry Felinized anti-TGFβ1,2,3 antibody VH2.1 - VL3 (antibody, V domains shown) VH: QVLLVQSGADVRKPGASVKIFCKASGYTFTSNVISWVRQTPAQGFEWMGGVIPIVDIANYAQRFKGRLVLTADTSTNTAYMELRSLKSADTAVYYCASTLGLVLDAMDYWGQGSLVTVSS VL: EIQMTQSPSSLSASPGDRVTITCRASQSLGSSYLAWYQQKPGKVPKLLIYGASSRAPGVPSRFSGSGSGTDFTLTISSLEPEDAATYYCQQYADSPITFGQGTKLEIKR
Result: 0.132 µg/mL

Q: Endpoint output: TGFb3 IC50 (SMAD3 phosphorylation in CMVICs, AlphaLISA) of Caninized anti-TGFβ1,2,3 antibody VH5.6 - VL2 (antibody, V domains shown) VH: EVQLVESGGDLVKPGGSLRLSCVASGFTFSSNVISWVRQAPGQGLEWMGGVIPIVDIANYAQRFKGRVTITADESTSTTYMELSSLRSEDTAVYYCASTLGLVLDAMDYWGQGTLVTVSS VL: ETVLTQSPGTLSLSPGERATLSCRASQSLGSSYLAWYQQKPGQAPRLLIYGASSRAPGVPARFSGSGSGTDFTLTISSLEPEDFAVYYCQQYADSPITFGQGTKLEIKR . Value?
Result: 0.056 µg/mL
